Recorded EC50, one value per entry.
# study.target: T1, PD-1 on 293T-PD-1 cells (UniProt Q15116 25-288, limits assumed)
# T1 construct: whole, on cells; the antibodies are anti-human PD-1
# T1 sequence (Q15116 25-288 limits assumed): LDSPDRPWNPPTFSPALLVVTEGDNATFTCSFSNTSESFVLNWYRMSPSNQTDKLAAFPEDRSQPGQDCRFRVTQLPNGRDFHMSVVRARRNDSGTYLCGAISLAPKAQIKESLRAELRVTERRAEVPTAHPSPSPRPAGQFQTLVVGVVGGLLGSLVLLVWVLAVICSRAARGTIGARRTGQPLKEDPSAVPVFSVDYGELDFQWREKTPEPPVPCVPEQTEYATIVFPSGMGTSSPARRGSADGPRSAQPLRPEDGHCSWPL
# protocol.description: FACS on 293T-PD-1 cells, PE goat anti-mouse detection
value.type: EC50

- 10A10 (antibody, V domains shown, Mouse monoclonal antibody purified from hybridoma supernatant by Protein A; also called 鼠源PD-1单克隆抗体10A10; PD-1杂交瘤抗体10A10) VH: EVKLVESGGDLVKPGGSLKLSCAASGFTFNYYDISWVRQTPEKRLEWVATISGGGRYTYYLDNVQGRFTISRDNAKNILYLQMNSLRSDDTALYFCASPYEGAMDYWGQGTSVTVSS VL: DIVMTQSHKFMSTSIGDGVNITCKASQDVGTAVAWYQQKPGQSPKLLNKWASTRHTGVPDRFTGSGSGTDFTLTINNVQSEDLADYFCQQYSTFPYTFGGGTNLELK: 0.0314 µg/mL
- 4B5 (antibody, V domains shown, Mouse monoclonal antibody purified from hybridoma supernatant by Protein A; also called 鼠源PD-1单克隆抗体4B5; PD-1杂交瘤抗体4B5) VH: EVILVESGGDLVKPGGSLKLSCAASGFTFSSYMMSWVRQTPEKRLEWVATISGGGANTYYLDSMKGRFTISRDNAKNILYLQMSSLRSEDTAFYYCARQSDRGFPYWGQGTLVTVSA VL: DIQMTQSPASQSASLGESVTITCLASQPIGTWLAWYQQKPGTSPQLLIFAATTLTDGVPSRFSGSGSGTKFSFKISSLQAEDFVSYYCQQFSSIPYTFGGGTRLEIK: 0.04 µg/mL
- 5F7 (antibody, V domains shown, Mouse monoclonal antibody purified from hybridoma supernatant by Protein A; also called 鼠源PD-1单克隆抗体5F7; PD-1杂交瘤抗体5F7) VH: EVMLVESGGDLVKPGGSLKLSCAASGFTFSSYMMSWVRQTPEKRLEWVAAISGGGGDTYYPDSVKGRFTISRDNAKNTLYLQMSSLRSEDTALYYCARRVVYAMDCWGQGTSVTVSS VL: DIQMTQSPASQSASLGESVTITCLASQSIGTWLVWYQQKPGKSPQLLISAATSLADGVPSRFSGSGSGTKFSFKISSLQAEDFVSYYCQQLYIIPWTFGGGTKLEIK: 0.0176 µg/mL
